assay: NCI Yeast Anticancer Drug Screen. Data for the mec2-1 strain (AID 157); details: S. cerevisiae mec2-1 strain, at 50.0 µM, hits give high values
The panel holds about 79,000 compounds, 15% with a hit somewhere; the sample as a whole holds those more often. Where a SMILES comes first, the peptide text is derived from it. [ ]: non-standard residue; d: D form. ξ: configuration not given here. ξF = NC(Cc1ccccc1)C(=O)O
What growth inhibition was measured for each of the following?
Your answer should be a plain number; it is taken to be in %.

# get_value(readout='growth inhibition', item= Cc1ccc(NC(=O)/C(=N\NC(N)=O)c2c(O)c3ccccc3[nH]c2=O)cc1 )
4.6

# get_value(readout='growth inhibition', item= CC[n+]1c(C)n(Cc2ccc(C(=O)O)cc2)c2cc(F)ccc21 )
-14.7

# get_value(readout='growth inhibition', item= c1cc[n+](CCNCC[n+]2ccccc2)cc1 )
-7.75

# get_value(readout='growth inhibition', item= CCCCC1C(=O)N(c2ccc(S(=O)(=O)Nc3ccccn3)cc2)N(c2ccc(O)c(C(=O)O)c2)C1=O (configuration not stated) )
23.7

# get_value(readout='growth inhibition', item= CC(C)N(C)c1ccc(N=Nc2cc(Cl)ccc2Cl)cc1 )
-36.8

# get_value(readout='growth inhibition', item= COc1cc(Oc2c(C)c(Cl)c(OC)c(Cl)c2OC)c2c(c1Cl)COC2=O )
-6.45

# get_value(readout='growth inhibition', item= N#Cc1c(N)oc(-c2cccc([N+](=O)[O-])c2)c1C#N )
28.9

# get_value(readout='growth inhibition', item= Clc1ccc(C(c2cccs2)N2CCNCC2)cc1 (configuration not stated) )
-2.75

# get_value(readout='growth inhibition', item= NC(Cc1ccccc1)C(=O)NCC(=O)NCC(=O)O (stereo not drawn) (H-[ξF]-Gly-Gly-OH) )
-1.35

# get_value(readout='growth inhibition', item= CCCCCCCCCC(O)CCCCC (configuration not stated) )
-21.2

# get_value(readout='growth inhibition', item= NNc1[nH]c(=S)[nH]c1C(N)=O )
-8.5

# get_value(readout='growth inhibition', item= Nc1ccc(Nc2nc3ccccc3s2)c(O)c1 )
2.15

# get_value(readout='growth inhibition', item= O=[N+]([O-])c1ccc2nc3c4ccccc4c4ccccc4c3nc2c1 )
-1.1

# get_value(readout='growth inhibition', item= CCOC(=O)C1CCC(C(=O)OCC)N1c1ccc(C=O)cc1 (configuration not stated) )
-18.1

# get_value(readout='growth inhibition', item= O=C(/C=C(\[O-])c1ccccc1)CCCCCCC(=O)/C=C(\[O-])c1ccccc1.O=C(/C=C(\[O-])c1ccccc1)CCCCCCC(=O)/C=C(\[O-])c1ccccc1.O=C(/C=C(\[O-])c1ccccc1)CCCCCCC(=O)/C=C(\[O-])c1ccccc1.[Nd+3].[Nd+3] )
22.5

# get_value(readout='growth inhibition', item= C=CC1=C(C)C2=NC1=CC1=NC(=C(CC)/C1=C\O)C=C1N=C3C(=C1C)C(=O)[C@H](C(=O)OC)C3=C1NC(=C2)[C@@H](C)[C@@H]1CCC(=O)O )
0.7

# get_value(readout='growth inhibition', item= CCOC(=O)CC(=O)c1ccc(C)cc1 )
-3.45

# get_value(readout='growth inhibition', item= O=C(Cc1cccc2ccccc12)N/N=C/c1ccc2c(c1)CCC2 )
-13.2

# get_value(readout='growth inhibition', item= Cc1nc(-[n+]2nc(-c3ccccc3)nn2-c2ccccc2)sc1C )
-15.2

# get_value(readout='growth inhibition', item= COc1cc(/C=N/n2cnnc2)cc(OC)c1OC )
5.45

# get_value(readout='growth inhibition', item= CCOc1ccc(NC(=O)C2CCC(C)(C(=O)O)C2(C)C)cc1 (configuration not stated) )
0.35

# get_value(readout='growth inhibition', item= COC(CN(C)CC(OC)OC)OC )
-20.9

# get_value(readout='growth inhibition', item= N#C/C(=C\c1ccc(-c2ccccc2)cc1)C(N)=O )
8.6

# get_value(readout='growth inhibition', item= Cc1ccc(NC(=O)/C=C/C(=O)O)c(NC(=O)/C=C/C(=O)O)c1 )
-1.15

# get_value(readout='growth inhibition', item= COc1ccc2ccccc2c1/C=N/N1CCCCC1 )
19.6

# get_value(readout='growth inhibition', item= CCOC(=O)c1sc(N)nc1-c1ccccc1 )
4

# get_value(readout='growth inhibition', item= NC(=O)C(c1ccccc1)N1CCCC1 (configuration not stated) )
-17.9
